targetEntity: T1, ROR1 naturally expressed on human tumor cell lines (A549, Jeko-1, SW620, PA-1) (human, UniProt Q01973 30-937)
T1 construct: whole, on cells; also called cells expressing ROR1
T1 sequence (Q01973 30-937): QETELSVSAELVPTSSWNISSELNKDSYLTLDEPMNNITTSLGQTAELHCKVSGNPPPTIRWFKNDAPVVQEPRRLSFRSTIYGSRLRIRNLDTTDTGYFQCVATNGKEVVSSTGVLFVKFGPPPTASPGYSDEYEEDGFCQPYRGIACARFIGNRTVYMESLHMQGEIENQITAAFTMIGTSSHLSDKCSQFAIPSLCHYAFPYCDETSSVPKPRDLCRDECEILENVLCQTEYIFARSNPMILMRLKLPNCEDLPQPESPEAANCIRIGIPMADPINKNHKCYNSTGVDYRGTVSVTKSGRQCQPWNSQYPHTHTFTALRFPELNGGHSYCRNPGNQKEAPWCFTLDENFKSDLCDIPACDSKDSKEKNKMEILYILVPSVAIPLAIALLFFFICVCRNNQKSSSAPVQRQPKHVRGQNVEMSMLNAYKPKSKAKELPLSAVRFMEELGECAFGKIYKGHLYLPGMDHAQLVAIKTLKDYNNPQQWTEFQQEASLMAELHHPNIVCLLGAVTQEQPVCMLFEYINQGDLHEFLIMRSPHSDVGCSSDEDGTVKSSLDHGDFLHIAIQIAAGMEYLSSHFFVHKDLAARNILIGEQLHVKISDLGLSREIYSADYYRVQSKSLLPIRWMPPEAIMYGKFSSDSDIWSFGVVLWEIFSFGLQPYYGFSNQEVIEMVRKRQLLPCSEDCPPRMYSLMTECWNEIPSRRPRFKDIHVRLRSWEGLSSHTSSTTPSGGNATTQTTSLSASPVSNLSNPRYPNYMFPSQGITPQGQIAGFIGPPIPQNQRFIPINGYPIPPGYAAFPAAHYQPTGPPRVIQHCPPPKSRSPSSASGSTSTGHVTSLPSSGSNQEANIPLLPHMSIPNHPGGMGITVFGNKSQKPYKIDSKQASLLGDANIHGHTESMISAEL
runDescription: FACS on SW620 cells naturally expressing ROR1
Top (MFI) reference

{"binder": "hz135A2B10-1.2 (antibody, human IgG1, kappa, V domains shown, Humanized, human IgG1/kappa) VH: QVQLVESGGGLVQPGGSLRLSCAASGFAFSTYGMAWVRQAPGKGLEWVASIHKGGFSTYYPDNVKGRFTISRDNDKNSLYLQMNSLRAEDTAVYYCIRHDWDGAMDYWGQGTLVTVSS VL: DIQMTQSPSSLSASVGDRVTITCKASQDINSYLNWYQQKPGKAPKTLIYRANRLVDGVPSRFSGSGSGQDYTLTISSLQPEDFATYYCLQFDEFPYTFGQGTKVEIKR", "outputUnit": "MFI", "Top (MFI)": 30400}
{"binder": "hz135A2B10-1.3 (antibody, human IgG1, kappa, V domains shown, Humanized, human IgG1/kappa) VH: QVQLVESGGGLVQPGGSLRLSCAASGFAFSTYGMAWVRQAPGKRLEWVASIHKGGFSTYYPDNVKGRFTISRDNDKNSLYLQMNSLRAEDTAVYYCIRHDWDGAMDYWGQGTLVTVSS VL: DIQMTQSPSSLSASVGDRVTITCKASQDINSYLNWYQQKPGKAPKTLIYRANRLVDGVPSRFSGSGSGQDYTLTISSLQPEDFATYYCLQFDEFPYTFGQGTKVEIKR", "outputUnit": "MFI", "Top (MFI)": 29900}
{"binder": "UC-961 (antibody, V domains shown) VH: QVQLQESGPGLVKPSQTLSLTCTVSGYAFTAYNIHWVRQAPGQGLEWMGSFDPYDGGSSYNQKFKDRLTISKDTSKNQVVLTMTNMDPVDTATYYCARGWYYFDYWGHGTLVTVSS VL: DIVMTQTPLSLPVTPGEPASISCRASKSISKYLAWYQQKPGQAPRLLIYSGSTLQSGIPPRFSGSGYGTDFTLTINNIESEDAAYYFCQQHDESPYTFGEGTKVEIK", "outputUnit": "MFI", "Top (MFI)": 26500}
{"binder": "hz135A2B10-1.1 (antibody, human IgG1, kappa, V domains shown, Humanized, human IgG1/kappa) VH: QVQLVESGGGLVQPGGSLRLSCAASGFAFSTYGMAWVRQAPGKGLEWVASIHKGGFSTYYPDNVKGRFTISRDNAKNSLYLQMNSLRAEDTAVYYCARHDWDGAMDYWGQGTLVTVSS VL: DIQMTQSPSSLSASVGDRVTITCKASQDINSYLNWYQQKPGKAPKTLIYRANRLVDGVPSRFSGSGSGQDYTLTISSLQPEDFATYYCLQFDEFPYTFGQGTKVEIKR", "outputUnit": "MFI", "Top (MFI)": 30300}
